- Tested on: 293T cells
- assayExplanation: Fluorescent detection of Fluc-mRNA (cell transfection efficiency of LNP formulations)
- Format: cell-based
- conditionInfo: RLU of named substance / RLU of HHMA
quantity: fluorescence absorption value, times that of HHMA (times)
Entry rule: numbers only, all in times.

Exercise: So what does the record say about fluorescence absorption value, times that of HHMA for `CCCCCCCCCCOC(=O)CCCN(CCCCCC(=O)OCC(CCCCCCCC)CCCCCCCC)CCOCCOCCO` ?
Solution: 0.69

Exercise: So what does the record say about fluorescence absorption value, times that of HHMA for CCCCCCCCCCOC(=O)CCCN(CCCCCC(=O)OCCC(CCCCCC)CCCCCC)CCC(C)O (stereo not shown) ?
Solution: 0.0104

Exercise: So what does the record say about fluorescence absorption value, times that of HHMA for `CCCCCCCCCCOC(=O)CCCN(CCCCCC(=O)OCCC(CCCCCC)CCCCCC)C[C@H](O)CO` ?
Solution: 0.65

Exercise: So what does the record say about fluorescence absorption value, times that of HHMA for `CCCCCCCCCCOC(=O)CCCN(CCCCCC(=O)OCCC(CCCCCC)CCCCCC)C[C@H](C)O` ?
Solution: 0.34
